pIC50: −log10 of the molar value.
Record set of pIC50 for target or system Acetylcholinesterase (Homo sapiens, UniProt P22303).

# compound, pIC50
rows = [
    ("CN(C)S(=O)(=O)N[C@H]1CCc2cc(O)ccc2C1", 7.55),
    ("CN(C)S(=O)(=O)NC1CCc2ccc(O)cc2C1 (configuration not stated)", 7.43),
    ("CN(C)C(=O)NC1CCc2cc(O)ccc2C1 (configuration not stated)", 8.15),
    ("CN(C)C(=O)N[C@H]1CCc2c(O)cccc2C1", 6.88),
    ("COc1cccc2c1CC[C@H](NC(=O)N(C)C)C2", 7.70),
    ("COc1ccc2c(c1)C[C@@H](NC(=O)N(C)C)CC2", 7.65),
    ("COc1ccc2c(c1)CCC(NC(=O)N(C)C)C2 (configuration not stated)", 7.79),
]

###

// reported Ki per item
molecular target: Acetylcholinesterase (Homo sapiens, UniProt P22303)
Sequence (P22303 whole entry): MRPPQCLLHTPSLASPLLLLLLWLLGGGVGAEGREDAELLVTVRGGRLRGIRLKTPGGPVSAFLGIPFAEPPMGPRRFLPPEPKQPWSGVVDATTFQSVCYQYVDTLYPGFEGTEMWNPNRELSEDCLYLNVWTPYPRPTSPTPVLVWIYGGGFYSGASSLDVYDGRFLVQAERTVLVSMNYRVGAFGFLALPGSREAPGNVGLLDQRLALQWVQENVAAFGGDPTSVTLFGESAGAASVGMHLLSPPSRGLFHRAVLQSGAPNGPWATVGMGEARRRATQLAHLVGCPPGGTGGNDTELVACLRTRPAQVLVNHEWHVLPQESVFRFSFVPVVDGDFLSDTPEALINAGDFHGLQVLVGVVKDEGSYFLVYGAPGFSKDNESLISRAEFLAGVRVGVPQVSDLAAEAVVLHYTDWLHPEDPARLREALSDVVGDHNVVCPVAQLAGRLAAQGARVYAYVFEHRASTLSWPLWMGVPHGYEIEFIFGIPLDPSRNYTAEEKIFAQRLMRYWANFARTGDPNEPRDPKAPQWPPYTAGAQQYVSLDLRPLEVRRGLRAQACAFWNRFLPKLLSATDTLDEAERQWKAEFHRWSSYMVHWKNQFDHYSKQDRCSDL

# compound, Ki, nM
measured = [
    ("COc1cccc2c1CC[C@H](NC(=O)N(C)C)C2", 0.98),
    ("COc1ccc2c(c1)C[C@@H](NC(=O)N(C)C)CC2", 1.06),
    ("COc1ccc2c(c1)CC(NS(=O)(=O)N(C)C)CC2 (stereo unspecified)", 0.83),
    ("COc1ccc2c(c1)CCC(NC(=O)N(C)C)C2 (stereo unspecified)", 0.67),
    ("CN(C)C(=O)NC1CCc2cc(O)ccc2C1 (stereo unspecified)", 1.33),
    ("COc1ccc2c(c1)CCC(NS(=O)(=O)N(C)C)C2 (stereo unspecified)", 1.05),
    ("CN(C)C(=O)N[C@H]1CCc2c(O)cccc2C1", 1.59),
    ("CN(C)S(=O)(=O)N[C@H]1CCc2cc(O)ccc2C1", 1.22),
    ("CN(C)S(=O)(=O)NC1CCc2ccc(O)cc2C1 (stereo unspecified)", 0.72),
    ("CN(C)C(=O)N[C@H]1CCc2ccc(O)cc2C1", 1.74),
    ("CN(C)S(=O)(=O)NC1CCc2c(O)cccc2C1 (stereo unspecified)", 1.34),
]

###

Record set of IC50 for target or system UniProt P22303.

# compound, IC50 [nM]
data = [
    ("CN(C)S(=O)(=O)NC1CCc2c(O)cccc2C1 (centres undefined)", 30.9),
    ("COc1ccc2c(c1)CC(NS(=O)(=O)N(C)C)CC2 (centres undefined)", 15.8),
    ("CN(C)C(=O)N[C@H]1CCc2ccc(O)cc2C1", 103),
    ("COc1ccc2c(c1)CCC(NS(=O)(=O)N(C)C)C2 (centres undefined)", 17),
]
